Measured values drawn from patent US6972296B2 for this set.

# Experimental System: α4β1 integrin (Homo sapiens, UniProt P05556+P13612)
# Construct: endogenous in cells; host or cells: Ramos cells
# Sequence (P13612 34-1032): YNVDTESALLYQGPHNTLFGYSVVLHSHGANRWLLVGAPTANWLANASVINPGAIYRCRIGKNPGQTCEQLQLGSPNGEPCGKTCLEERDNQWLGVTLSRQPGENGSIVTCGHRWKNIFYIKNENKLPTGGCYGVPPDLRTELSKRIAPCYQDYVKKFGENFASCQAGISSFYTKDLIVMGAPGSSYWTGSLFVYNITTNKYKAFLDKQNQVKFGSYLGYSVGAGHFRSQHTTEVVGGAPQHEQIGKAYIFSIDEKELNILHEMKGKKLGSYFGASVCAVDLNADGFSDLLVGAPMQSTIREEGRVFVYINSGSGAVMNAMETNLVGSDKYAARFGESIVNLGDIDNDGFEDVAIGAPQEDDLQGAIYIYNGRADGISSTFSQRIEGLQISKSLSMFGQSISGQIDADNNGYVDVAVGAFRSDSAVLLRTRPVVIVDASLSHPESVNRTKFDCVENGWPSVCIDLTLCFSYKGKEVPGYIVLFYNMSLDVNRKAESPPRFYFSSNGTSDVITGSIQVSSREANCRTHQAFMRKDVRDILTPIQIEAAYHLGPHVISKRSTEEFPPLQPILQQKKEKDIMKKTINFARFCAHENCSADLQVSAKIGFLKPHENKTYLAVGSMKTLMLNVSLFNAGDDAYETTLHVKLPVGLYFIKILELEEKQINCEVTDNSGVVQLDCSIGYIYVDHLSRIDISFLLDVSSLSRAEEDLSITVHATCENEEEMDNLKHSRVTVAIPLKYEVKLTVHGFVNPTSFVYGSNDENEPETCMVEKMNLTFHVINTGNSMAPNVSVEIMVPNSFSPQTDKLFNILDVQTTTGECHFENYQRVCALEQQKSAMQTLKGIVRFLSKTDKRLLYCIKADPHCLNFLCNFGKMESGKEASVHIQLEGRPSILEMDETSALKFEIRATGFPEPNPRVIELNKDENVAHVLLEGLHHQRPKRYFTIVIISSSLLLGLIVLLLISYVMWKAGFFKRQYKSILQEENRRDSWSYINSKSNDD
# Sequence (P05556 21-798): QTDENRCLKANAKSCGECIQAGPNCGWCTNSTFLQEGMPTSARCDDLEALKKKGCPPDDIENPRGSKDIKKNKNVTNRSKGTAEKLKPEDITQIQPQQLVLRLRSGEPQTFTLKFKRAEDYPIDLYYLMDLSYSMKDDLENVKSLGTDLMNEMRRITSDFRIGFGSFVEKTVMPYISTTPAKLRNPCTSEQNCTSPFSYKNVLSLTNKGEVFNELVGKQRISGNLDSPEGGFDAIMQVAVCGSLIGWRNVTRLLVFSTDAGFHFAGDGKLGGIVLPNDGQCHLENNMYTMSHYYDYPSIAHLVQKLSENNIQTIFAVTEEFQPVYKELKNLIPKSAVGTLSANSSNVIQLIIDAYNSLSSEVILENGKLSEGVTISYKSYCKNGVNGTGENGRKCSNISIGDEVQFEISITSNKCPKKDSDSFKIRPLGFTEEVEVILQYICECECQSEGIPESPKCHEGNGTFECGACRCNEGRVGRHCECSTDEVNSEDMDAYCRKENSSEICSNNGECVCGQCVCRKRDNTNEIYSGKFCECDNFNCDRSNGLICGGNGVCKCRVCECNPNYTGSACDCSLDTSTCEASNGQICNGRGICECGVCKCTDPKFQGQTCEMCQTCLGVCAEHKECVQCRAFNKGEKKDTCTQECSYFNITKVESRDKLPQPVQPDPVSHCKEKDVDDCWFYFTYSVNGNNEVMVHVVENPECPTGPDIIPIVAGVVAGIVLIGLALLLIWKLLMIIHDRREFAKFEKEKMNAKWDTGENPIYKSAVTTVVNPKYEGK
# Protocol: Adhesion of calcein-labeled Ramos cells to CS1 (fibronectin) peptide conjugated ovalbumin
# Type: cell-based
# Condition Description: Table 7; Ramos cell adhesion to CS1 conjugated ovalbumin; dose required to give 50% inhibition
pIC50: −log10 of the molar value.
Quantity Measured: pIC50

{"columns": ["Molecule Smiles", "Quantity Measured", "Observed Value"],
 "data": [
  ["O=C(O)C[C@H](NC(=O)Nc1c(O)c2c(n(Cc3ccccc3Cl)c1=O)CCC2)c1cccc(OC2CCCC2)c1", "pIC50", 8.15],
  ["CCOc1cccc(Cl)c1Cn1cc(C)c(O)c(NC(=O)N[C@@H](CC(=O)O)c2cccc(OC(F)(F)F)c2)c1=O", "pIC50", 8.40],
  ["CCOc1ccc2cc([C@H](CC(=O)O)NC(=O)Nc3c(O)c(C)cn(Cc4c(Cl)cccc4OCC)c3=O)ccc2c1", "pIC50", 8.22]
]}

###

# Experimental System: α4β1 integrin (Homo sapiens, UniProt P05556+P13612)
# Construct: endogenous in cells; host or cells: Ramos cells
# Protocol: Adhesion of calcein-labeled Ramos cells to CS1 (fibronectin) peptide conjugated ovalbumin
# Format: cell-based
# Condition Description: Table 7; Ramos cell adhesion to CS1 conjugated ovalbumin; dose required to give 50% inhibition
Quantity Measured: IC50 (nM)

{"columns": ["Molecule", "Experimental System", "Unit Name", "IC50"],
 "data": [
  ["CCOc1cccc(Cl)c1Cn1cc(C)c(O)c(NC(=O)NC(CC(=O)O)c2ccco2)c1=O (centres unmarked)", "α4β1 integrin (Homo sapiens, UniProt P05556+P13612)", "nM", 8],
  ["Cc1cccc(-c2ccc([C@H](CC(=O)O)NC(=O)Nc3c(O)ccn(Cc4ccccc4Cl)c3=O)cc2)c1", "α4β1 integrin (Homo sapiens, UniProt P05556+P13612)", "nM", 30],
  ["CCOc1c(Cl)ccc([C@H](CC(=O)O)NC(=O)Nc2c(O)c3c(n(Cc4ccccc4Cl)c2=O)CCC3)c1Cl", "α4β1 integrin (Homo sapiens, UniProt P05556+P13612)", "nM", 225],
  ["CCOc1cccc([C@H](CC(=O)O)NC(=O)Nc2c(O)c(CC)c(C)n(Cc3c(Cl)cccc3OCC)c2=O)c1", "α4β1 integrin (Homo sapiens, UniProt P05556+P13612)", "nM", 4],
  ["Cc1ccc(C(CC(=O)O)NC(=O)Nc2c(O)c(C)cn(Cc3ccccc3Cl)c2=O)o1 (centres unmarked)", "α4β1 integrin (Homo sapiens, UniProt P05556+P13612)", "nM", 20],
  ["O=C(O)C[C@H](NC(=O)Nc1c(O)c2c(n(Cc3ccccc3Cl)c1=O)CCC2)c1ccc(F)cc1", "α4β1 integrin (Homo sapiens, UniProt P05556+P13612)", "nM", 9]
]}

P. COc1ccc(-c2ccc([C@H](CC(=O)O)NC(=O)Nc3c(O)c(C)cn(Cc4ccccc4Cl)c3=O)cc2)cc1
Q. COc1cccc(OC)c1-c1ccc([C@H](CC(=O)O)NC(=O)Nc2c(O)c(C)cn(Cc3ccccc3Cl)c2=O)cc1
## Task Just tell me: smaller IC50 value, P or Q ? Give the label under which the chosen entry appears.
## Result P
(P: 23 nM, Q: 40 nM)
